System: Yap1 mRNA
Test: Dose-dependent inhibition of human Yap1 in A-431 cells (Example 7, 10,000 cells per well, RTS36584)
Format: cell-based
Details: Table 58, 15.6 nM, free uptake, A-431 cells 10,000 cells per well, 48 hours
Strand notation (5' to 3'): a small letter for the sugar, then the base; units joined by * are phosphorothioate-linked, units joined directly phosphodiester-linked; [ ] holds rarer units or linkages, { } end groups; capitals alone tell only the bases. k = constrained ethyl (cEt); [5mC] = 5-methylcytosine; d = 2'-deoxy (DNA)
quantity.kind: Yap1 mRNA, % UTC (% UTC)

[[record]]
substance = "958742 (kA*kG*k[5mC]*dA*dA*dT*dA*dT*dG*dG*dT*dA*dT*kT*kA*kG; antisense) [compound 958742]"
quantity_kind = "Yap1 mRNA, % UTC"
result = 105

[[record]]
substance = "958587 (kG*kG*kT*dG*dA*d[5mC]*dT*dG*dA*dA*dA*d[5mC]*dT*k[5mC]*kT*kA; antisense) [compound 958587]"
quantity_kind = "Yap1 mRNA, % UTC"
result = 94

[[record]]
substance = "958807 (kT*k[5mC]*kA*dT*dT*dG*dT*dA*dG*dT*d[5mC]*dT*dG*kT*k[5mC]*kT; antisense) [compound 958807]"
quantity_kind = "Yap1 mRNA, % UTC"
result = 92


---

Tested on: Yap1 mRNA
Assay: Dose-dependent inhibition of human Yap1 in A-431 cells (Example 7, 10,000 cells per well, RTS36584)
Type: cell-based
Conditions: Table 58, A-431 cells 10,000 cells per well, free uptake
pIC50: −log10 of the molar value. Strand notation (5' to 3'): a small letter for the sugar, then the base; units joined by * are phosphorothioate-linked, units joined directly phosphodiester-linked; [ ] holds rarer units or linkages, { } end groups; capitals alone tell only the bases. k = constrained ethyl (cEt); [5mC] = 5-methylcytosine; d = 2'-deoxy (DNA)
quantity.kind: pIC50

[[record]]
substance = "958587 (kG*kG*kT*dG*dA*d[5mC]*dT*dG*dA*dA*dA*d[5mC]*dT*k[5mC]*kT*kA; antisense) [compound 958587]"
assay_system = "Yap1 mRNA"
result = 7.00

[[record]]
substance = "958497 (kA*kT*kA*dT*dG*dG*dA*dA*dA*dT*dT*dG*dT*k[5mC]*kT*k[5mC]) [compound 958497]"
assay_system = "Yap1 mRNA"
result = 7.00

[[record]]
substance = "958622 (kG*kA*kT*dA*dT*dT*d[5mC]*d[5mC]*dG*d[5mC]*dA*dT*dT*kG*k[5mC]*k[5mC]; antisense) [compound 958622]"
assay_system = "Yap1 mRNA"
result = 7.00

[[record]]
substance = "958727 (kA*kT*k[5mC]*dT*dG*dT*d[5mC]*dA*dG*dT*dT*dA*dT*k[5mC]*k[5mC]*kT; antisense) [compound 958727]"
assay_system = "Yap1 mRNA"
result = 7.00

[[record]]
substance = "958577 (kT*k[5mC]*kT*dG*dT*dG*dG*d[5mC]*dT*dA*d[5mC]*dT*dG*kG*k[5mC]*kA; antisense) [compound 958577]"
assay_system = "Yap1 mRNA"
result = 7.00

[[record]]
substance = "958472 (kT*k[5mC]*k[5mC]*dT*dT*dA*dG*dA*dT*d[5mC]*d[5mC]*dT*dT*k[5mC]*kA*k[5mC]; antisense) [compound 958472]"
assay_system = "Yap1 mRNA"
result = 6.70

[[record]]
substance = "715483 (k[5mC]*kT*k[5mC]*dT*dT*dT*dG*dG*dA*dA*dA*d[5mC]*d[5mC]*kA*kT*kT) [compound 715483]"
assay_system = "Yap1 mRNA"
result = 7.00

[[record]]
substance = "958532 (kG*kA*kA*dG*dT*dA*dG*dG*dA*dG*d[5mC]*dA*dA*kG*kT*k[5mC]; antisense) [compound 958532]"
assay_system = "Yap1 mRNA"
result = 7.00

[[record]]
substance = "958542 (kT*kA*kT*dA*dG*dT*dA*dT*dT*d[5mC]*dT*dA*dT*k[5mC]*k[5mC]*kA; antisense) [compound 958542]"
assay_system = "Yap1 mRNA"
result = 7.00

[[record]]
substance = "958807 (kT*k[5mC]*kA*dT*dT*dG*dT*dA*dG*dT*d[5mC]*dT*dG*kT*k[5mC]*kT; antisense) [compound 958807]"
assay_system = "Yap1 mRNA"
result = 7.00

[[record]]
substance = "958537 (k[5mC]*kA*kG*dG*dG*dT*d[5mC]*dA*dA*dT*dT*dT*dT*k[5mC]*kA*kG; antisense) [compound 958537]"
assay_system = "Yap1 mRNA"
result = 7.00

[[record]]
substance = "958477 (kA*kT*kT*dT*d[5mC]*d[5mC]*dG*dG*dT*dG*d[5mC]*dA*dT*kG*kT*kG; antisense) [compound 958477]"
assay_system = "Yap1 mRNA"
result = 7.00

[[record]]
substance = "958547 (k[5mC]*kA*k[5mC]*dA*dT*dA*d[5mC]*dT*d[5mC]*dT*dA*dG*dT*kT*kA*k[5mC]; antisense) [compound 958547]"
assay_system = "Yap1 mRNA"
result = 6.70

